Molecular target: hGLP-1R (Homo sapiens, UniProt P43220)
Sequence (P43220 24-463): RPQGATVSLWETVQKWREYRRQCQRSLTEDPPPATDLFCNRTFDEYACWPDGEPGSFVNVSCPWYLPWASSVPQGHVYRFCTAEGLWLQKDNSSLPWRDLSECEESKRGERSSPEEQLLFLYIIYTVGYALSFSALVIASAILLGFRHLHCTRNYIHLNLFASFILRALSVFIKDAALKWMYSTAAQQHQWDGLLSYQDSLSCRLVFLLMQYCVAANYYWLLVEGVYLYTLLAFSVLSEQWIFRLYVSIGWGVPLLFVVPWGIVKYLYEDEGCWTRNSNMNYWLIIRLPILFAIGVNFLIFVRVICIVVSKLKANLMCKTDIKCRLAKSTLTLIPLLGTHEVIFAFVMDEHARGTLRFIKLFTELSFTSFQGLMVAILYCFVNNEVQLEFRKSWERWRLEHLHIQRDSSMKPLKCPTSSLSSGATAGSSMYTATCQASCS
Experiment: cell-based or functional assay
Entry class follows cAMP Rel EC50, nM (1% HSA): bin A: < 200 nM; bin B: ≥ 200 nM and < 400 nM; bin C: ≥ 400 nM

YXQGTFTSDFSXXLDKKAQXAFIEYLLEGGPSSGAPPPGGT (acylated; synthetic construct; SITE 2: note = 2-Aminoisobutyric Acid; SITE 12: note = L-ornithine; SITE 13: note = alpha-methyl-leucine; SITE 17: note = Lysine is chemically modified through conjugation of the epsilon-amino group of the Lysine side chain with (2-[2-(2-Amino-ethoxy)-ethoxy]-acetyl)-(gamma-Glu)) [Example 197]
bin C
YXQGTFTSDFSQXLDKKAQXAFIEYLLEAGPSSGAPPPSGX (synthetic construct; SITE 2: note = 2-Aminoisobutyric Acid; SITE 13: note = alpha-methyl-leucine; SITE 17: note = Lysine is chemically modified through conjugation of the epsilon-amino group of the Lysine side chain with (2-[2-(2-Amino-ethoxy)-ethoxy]-acetyl)-(gamma-Glu)-CO-(CH2) 16-CO2H; SITE 20: n) [Example 777]
bin B
YXQGTXTSDYSIXLDKKAAXAFIEYLIETGPSSGAPPPSEG (synthetic construct; SITE 2: note = 2-Aminoisobutyric Acid; SITE 6: note = alpha-methyl-2-fluoro-L-phenylalanine; SITE 13: note = alpha-methyl-leucine; SITE 17: note = Lysine is chemically modified through conjugation of the epsilon-amino group of the Lysine side chain with (2-[2-(2-Amino-ethoxy)-et)) [Example 383]
bin A

Task: Band for the recorded cAMP Rel EC50, nM (1% HSA) of YXQGTFTSDXSQXLDXKAQXAFIEYLIEAGPSSGEPPPSGS (not fully specified; non-natural residues, (γGlu)2-C18 diacid lysine acylation, C-terminal amide; synthetic construct; SITE 2: note = 2-Aminoisobutyric Acid; SITE 10: note = 3-(4-Pyridyl)-L-alanine; SITE 13: note = alpha-methyl-leucine; SITE 16: note = L-ornithine; SITE 17: note = Lysine is chemically modified through conjugation of the epsilon-amino group of the Lysine side chain with (gamma-Gl)) [Example 1019] ?
Output: bin A

Task: Which class does YXQGTFTSDXSQXLDXKAQXAFIEYLIAGGPSSGAPPPSGSEE (non-natural residues; C18 diacid-(γ-Glu)2 acyl on Lys; C-terminal amide; synthetic construct; SITE 2: note = 2-Aminoisobutyric Acid; SITE 10: note = 3-(4-Pyridyl)-L-alanine; SITE 13: note = alpha-methyl-leucine; SITE 16: note = L-ornithine; SITE 17: note = Lysine is chemically modified through conjugation of the epsilon-amino group of the Lysine side chain with (gamma-Gl)) [Example 1031] fall in?
Output: bin A

Task: Lab note: which band did YXQGTFTSDFSXXLDKKAQXAFIEYLLEGGPSSGAPXPGGS (acylated; synthetic construct; SITE 2: note = 2-Aminoisobutyric Acid; SITE 12: note = L-ornithine; SITE 13: note = alpha-methyl-leucine; SITE 17: note = Lysine is chemically modified through conjugation of the epsilon-amino group of the Lysine side chain with (2-[2-(2-Amino-ethoxy)-ethoxy]-acetyl)-(gamma-Glu)) [Example 236] land in?
Output: bin B

Task: Input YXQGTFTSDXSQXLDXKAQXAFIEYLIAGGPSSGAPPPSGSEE (non-natural residues; lipidated Lys; C-terminal amide; synthetic construct; SITE 2: note = 2-Aminoisobutyric Acid; SITE 10: note = 3-(4-Pyridyl)-L-alanine; SITE 13: note = alpha-methyl-leucine; SITE 16: note = L-ornithine; SITE 17: note = Lysine is chemically modified through conjugation of the epsilon-amino group of the Lysine side chain with D-Glutami) [Example 1034] ; output its category
Output: bin B

Task: Lab note: sort YXQGTXTSDXSIXLDXKAQXAFIEYLEEGGPSSGAPPPS (synthetic construct; SITE 2: note = 2-Aminoisobutyric Acid; SITE 6: note = alpha-methyl-2-fluoro-L-phenylalanine; SITE 10: note = 3-(4-Pyridyl)-L-alanine; SITE 13: note = alpha-methyl-leucine; SITE 16: note = L-ornithine; SITE 17: note = Lysine is chemically modified through conjugation of the epsil) [Example 441] into the matching cAMP Rel EC50, nM (1% HSA) band.
Output: bin A

Task: Exercise: read the entry YXQGTFTSDFSXXLDKKAQXAFIEYLLEGGPSSGXPPPGGS (not fully specified; synthetic construct; SITE 2: note = 2-Aminoisobutyric Acid; SITE 12: note = L-ornithine; SITE 13: note = alpha-methyl-leucine; SITE 17: note = Lysine is chemically modified through conjugation of the epsilon-amino group of the Lysine side chain with (gamma-Glu)2-CO-(CH2)16-CO2H; SITE 20: note = 2-Am) [Example 771] and state which class it falls under.
Output: bin C

Task: # bin lookup: classify YXQGTFTSDFSXXLDKKAQXAFIEYLLEAGPSSGEPPPSGS (synthetic construct; SITE 2: note = 2-Aminoisobutyric Acid; SITE 12: note = L-ornithine; SITE 13: note = alpha-methyl-leucine; SITE 17: note = Lysine is chemically modified through conjugation of the epsilon-amino group of the Lysine side chain with (2-[2-(2-Amino-ethoxy)-ethoxy]-acetyl)2-(gamma-Glu)) [Example 155] by its cAMP Rel EC50, nM (1% HSA)
Output: bin C

Task: Returns: class label. Input: YXQGTXTSDYSILLDKKAQXNFIEYLEEGGPSSGAPPPS (synthetic construct; SITE 2: note = 2-Aminoisobutyric Acid; SITE 6: note = alpha-methyl-2-fluoro-L-phenylalanine; SITE 17: note = Lysine is chemically modified through conjugation of the epsilon-amino group of the Lysine side chain with (gamma-Glu)2-CO-(CH2)16-CO2H; SITE 20: note = 2-Aminoisobutyric) [Example 416]
Output: bin A

Task: Which category does the recorded cAMP Rel EC50, nM (1% HSA) put YXQGTFTSDXSXXLDKKAQXAFIEXLIEXGPSSGEPPPSGSE (Aib, 4Pal, Me4Pal, Orn, alpha-methyl-Leu, lipidated Lys, amide; synthetic construct; SITE 2: note = 2-Aminoisobutyric Acid; SITE 10: note = 3-(4-Pyridyl)-L-alanine; SITE 12: note = L-ornithine; SITE 13: note = alpha-methyl-leucine; SITE 17: note = Lysine is chemically modified through conjugation of the epsilon-amino group of the Lysine side chain with (gamma-Gl)) [Example 990] in?
Output: bin C
